Target: Uracil-DNA glycosylase (Human herpesvirus 1) (UniProt P10186)
Sequence (P10186 whole entry, looked up): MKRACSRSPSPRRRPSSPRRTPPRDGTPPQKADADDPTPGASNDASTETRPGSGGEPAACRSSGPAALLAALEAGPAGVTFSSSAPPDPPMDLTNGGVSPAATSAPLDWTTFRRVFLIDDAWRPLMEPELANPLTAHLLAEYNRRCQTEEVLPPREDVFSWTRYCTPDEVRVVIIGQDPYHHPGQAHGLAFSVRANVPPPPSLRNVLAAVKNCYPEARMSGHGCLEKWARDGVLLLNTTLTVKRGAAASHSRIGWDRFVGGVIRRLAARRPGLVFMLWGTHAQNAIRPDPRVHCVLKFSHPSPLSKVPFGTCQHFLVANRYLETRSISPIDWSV
Assay: Inhibitory potency against HSV-1 UDG (Herpes Simplex virus type-I Uracil DNA glycosylase)
Give pIC50 for every item shown.
Units for pIC50: none; it is -log10 of a concentration expressed in mol/L.

Entry `CCc1ccc(Nc2cc(=O)[nH]c(=O)[nH]2)cc1` , pIC50 reported as 3.30

Entry `CCCCCCc1ccc(Nc2cc(=O)[nH]c(=O)[nH]2)cc1` , pIC50 reported as 4.52

Entry `CCCCCCOc1ccc(Nc2cc(=O)[nH]c(=O)[nH]2)cc1` , pIC50 reported as 4.52

Entry `CCCCCCc1ccc(Nc2cc(=O)[nH]c(=O)n2CCO)cc1` , pIC50 reported as 4.70

Entry `CCCCCCc1ccc(Nc2cc(=O)[nH]c(=O)n2CCCO)cc1` , pIC50 reported as 4.05
